Data origin, for the record: patent US8901138B2

target: MNK1a (Homo sapiens, UniProt Q9BUB5); assay: MNK1 in vitro kinase assay (assay 2), Z'-LYTE; type: biochemical; details: compound concentration of 1 μM
Sequence (Q9BUB5 1-424 isoform Q9BUB5-2): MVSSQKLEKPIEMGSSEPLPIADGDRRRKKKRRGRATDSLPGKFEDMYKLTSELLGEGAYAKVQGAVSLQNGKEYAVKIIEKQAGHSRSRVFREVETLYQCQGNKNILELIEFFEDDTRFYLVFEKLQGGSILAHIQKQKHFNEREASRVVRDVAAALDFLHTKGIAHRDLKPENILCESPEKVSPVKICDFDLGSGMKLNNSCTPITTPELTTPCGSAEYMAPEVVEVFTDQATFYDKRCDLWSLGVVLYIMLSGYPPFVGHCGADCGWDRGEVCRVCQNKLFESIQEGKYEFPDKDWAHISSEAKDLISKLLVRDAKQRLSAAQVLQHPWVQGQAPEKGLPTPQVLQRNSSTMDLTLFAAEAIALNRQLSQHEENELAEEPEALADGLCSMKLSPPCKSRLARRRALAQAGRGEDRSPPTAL
metric.name: inhibition at 1 µM (%)

>>> recorded_number("COCCS(C)(=O)=Nc1cc(C)c2c(Nc3ccc(F)cc3O[C@H]3CCOC3)ncnc2c1 (stereo partly shown)")
85
>>> recorded_number("CCS(C)(=O)=Nc1cc(C)c2c(Nc3ccc(F)cc3OC3CCOC3)ncnc2c1 (single isomer, unassigned)")
98
>>> recorded_number("Cc1cc(N=S(C)(C)=O)cc2ncnc(Nc3ccc(F)cc3OC3CCOC3=O)c12 (stereo not shown)")
75
>>> recorded_number("Cc1cc(N=S(C)(C)=O)cc2ncnc(Nc3ccc(F)cc3OC3CC(O)C3(C)C)c12 (stereo not shown)")
85
>>> recorded_number("COC1CCCC(Oc2cc(F)ccc2Nc2ncnc3cc(N=S(C)(C)=O)cc(C)c23)C1 (racemic)")
84
>>> recorded_number("Cc1cc(N=S(C)(C)=O)cc2ncnc(Nc3ccc(F)cc3O[C@@H]3CCCN(CCC#N)C3)c12")
93
>>> recorded_number("Cc1cc(N=S(C)(C)=O)cc2ncnc(Nc3cccnc3OC3COCCOC3)c12")
93
